target: human TLR7 (Homo sapiens, UniProt Q9NYK1); construct: expressed in transfected cells; host or cells: HEK293; experiment: TLR7 cellular reporter assay (HEK293 TLR7-NFκB-luc); assay type: cell-based; conditions: lowest effective concentration; HEK293 transiently transfected with TLR7 and NFκB-luc; 6 hours incubation
Quick list: HEK293 TLR7-NFκB-luc (LEC; μM) per entry.
Please reply with the bare figure in µM and do not write the unit itself.

Some entries whose results are on file:
[
  {
    "smiles-data": "Nc1nc2nc3c1nc(O)n3Cc1ccc(F)c(c1)OC/C=C/CO2",
    "HEK293 TLR7-NFκB-luc (LEC; μM) [µM]": 0.034
  },
  {
    "smiles-data": "Nc1nc2nc3c1nc(O)n3Cc1cccc(c1)OC/C=C/CCO2",
    "HEK293 TLR7-NFκB-luc (LEC; μM) [µM]": 1.31
  },
  {
    "smiles-data": "COc1ccc2cc1Cn1c(O)nc3c(N)nc(nc31)OCCCCO2",
    "HEK293 TLR7-NFκB-luc (LEC; μM) [µM]": 0.15
  },
  {
    "smiles-data": "Nc1nc2nc3c1nc(O)n3Cc1cc(ccn1)OC/C=C/CCO2",
    "HEK293 TLR7-NFκB-luc (LEC; μM) [µM]": 0.74
  },
  {
    "smiles-data": "Nc1nc2nc3c1nc(O)n3Cc1ccccc1OC/C=C\\CO2",
    "HEK293 TLR7-NFκB-luc (LEC; μM) [µM]": 0.53
  }
]

What does the record list as HEK293 TLR7-NFκB-luc (LEC; μM) for Nc1nc2nc3c1nc(O)n3Cc1ccc(F)c(c1)OC/C=C/CN2 ? 0.063

What does the record list as HEK293 TLR7-NFκB-luc (LEC; μM) for Nc1nc2nc3c1nc(O)n3CCc1cccc(c1)C/C=C/CCO2 ? 3.95

What does the record list as HEK293 TLR7-NFκB-luc (LEC; μM) for COc1cc2cc(c1)OCCCCOc1nc(N)c3nc(O)n(c3n1)C2 ? 0.029

====

Target: human TLR7 (Homo sapiens, UniProt Q9NYK1)
Construct: expressed in transfected cells; host or cells: HEK293
Sequence (Q9NYK1 27-1049): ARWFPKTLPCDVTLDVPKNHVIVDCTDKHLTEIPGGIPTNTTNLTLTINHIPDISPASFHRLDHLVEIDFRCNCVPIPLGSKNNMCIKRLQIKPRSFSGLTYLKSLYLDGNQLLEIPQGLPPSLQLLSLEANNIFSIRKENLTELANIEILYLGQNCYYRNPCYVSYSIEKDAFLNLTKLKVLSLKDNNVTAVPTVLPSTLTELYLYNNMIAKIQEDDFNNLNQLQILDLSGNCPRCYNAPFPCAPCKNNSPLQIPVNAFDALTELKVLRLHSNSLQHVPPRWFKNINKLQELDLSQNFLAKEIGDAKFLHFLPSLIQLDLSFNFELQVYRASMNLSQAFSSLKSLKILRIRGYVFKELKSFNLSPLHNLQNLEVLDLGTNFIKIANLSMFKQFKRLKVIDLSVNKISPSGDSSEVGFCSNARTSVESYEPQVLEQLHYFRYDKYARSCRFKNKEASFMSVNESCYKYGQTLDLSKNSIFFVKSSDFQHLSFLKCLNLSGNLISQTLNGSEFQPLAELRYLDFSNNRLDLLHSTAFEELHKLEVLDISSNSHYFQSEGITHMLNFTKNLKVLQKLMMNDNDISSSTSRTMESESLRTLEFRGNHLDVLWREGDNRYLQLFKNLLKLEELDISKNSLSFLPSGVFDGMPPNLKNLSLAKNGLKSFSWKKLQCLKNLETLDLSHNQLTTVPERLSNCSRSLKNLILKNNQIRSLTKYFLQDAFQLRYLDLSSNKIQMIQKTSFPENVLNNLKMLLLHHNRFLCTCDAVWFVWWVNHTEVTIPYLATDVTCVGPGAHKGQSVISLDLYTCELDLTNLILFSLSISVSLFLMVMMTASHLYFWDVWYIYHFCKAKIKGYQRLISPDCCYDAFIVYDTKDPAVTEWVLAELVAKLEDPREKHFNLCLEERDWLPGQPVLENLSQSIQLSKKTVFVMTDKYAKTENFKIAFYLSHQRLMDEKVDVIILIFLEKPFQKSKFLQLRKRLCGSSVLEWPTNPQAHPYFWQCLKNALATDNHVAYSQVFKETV
Assay: TLR7 cellular reporter assay (HEK293 TLR7-NFκB-luc)
Type: cell-based
Settings: lowest effective concentration; HEK293 transiently transfected with TLR7 and NFκB-luc; 6 hours incubation
Class (required): determined from HEK293 TLR7-NFκB-luc (LEC; μM); valid ranges are Low: < 0.8 µM; Mid: ≥ 0.8 µM and < 3 µM; High: ≥ 3 µM

[
  {
    "compound": "COc1c2cccc1OC/C=C/COc1nc(N)c3nc(O)n(c3n1)C2",
    "classification": "High"
  },
  {
    "compound": "Nc1nc2nc3c1ncn3Cc1ncccc1OC/C=C/CCO2",
    "classification": "High"
  },
  {
    "compound": "Nc1nc2nc3c1nc(O)n3Cc1cccc(n1)CC/C=C\\CCO2",
    "classification": "High"
  },
  {
    "compound": "Nc1nc2nc3c1nc(O)n3Cc1cccc(c1)CCCCCCn1ccnc1-2",
    "classification": "High"
  },
  {
    "compound": "Nc1nc2nc3c1nc(O)n3Cc1ccc(cc1)C/C=C\\CCCCO2",
    "classification": "High"
  },
  {
    "compound": "COc1ccc2cc1OC/C=C\\COc1nc(N)c3nc(O)n(c3n1)C2 [Compound 60]",
    "classification": "Low"
  }
]

Which of the defined bands does the recorded HEK293 TLR7-NFκB-luc (LEC; μM) of Nc1nc2nc3c1nc(O)n3Cc1cccc(c1)CCCCCO2 sit within? Low

Which of the defined bands does the recorded HEK293 TLR7-NFκB-luc (LEC; μM) of Nc1nc2nc3c1nc(O)n3Cc1ncccc1OCC/C=C\CO2 sit within? Mid

Which of the defined bands does the recorded HEK293 TLR7-NFκB-luc (LEC; μM) of Nc1nc2nc3c1nc(O)n3CCc1cccc(c1)OC/C=C\CO2 sit within? High

Which of the defined bands does the recorded HEK293 TLR7-NFκB-luc (LEC; μM) of Nc1nc2nc3c1nc(O)n3Cc1cccc(n1)COCCCCO2 sit within? Mid

Which of the defined bands does the recorded HEK293 TLR7-NFκB-luc (LEC; μM) of Nc1nc2nc3c1ncn3Cc1cccc(c1)C/C=C\CCO2 sit within? High

Which of the defined bands does the recorded HEK293 TLR7-NFκB-luc (LEC; μM) of CC1CCOc2cccc(c2)Cn2c(O)nc3c(N)nc(nc32)OC1 (centres unmarked) sit within? Low

Reference for the values: patent US10822349B2
